protocol description: CellTiter-Glo Luminescent Cell Viability Assay
Format: cell-based, human
recorded conditions: human, CLL cells from a patient, patient P0369, sample 13PB0555; DASA 100 μM; read-out: Viable cells [DASA]

- structure notation: "O=S(=O)(c1ccc2c(c1)OCCO2)N1CCN(S(=O)(=O)c2c(F)cccc2F)CC1"
  unit tag: "%"
  viability at 100 μM: 100

* * *

protocol description: CellTiter-Glo Luminescent Cell Viability Assay
Assay type: cell-based, human
recorded conditions: human, CLL cells from a patient, patient P0074, sample 14BP0079; DASA 100 μM; read-out: Viable cells [DASA]

- structure notation: "O=S(=O)(c1ccc2c(c1)OCCO2)N1CCN(S(=O)(=O)c2c(F)cccc2F)CC1"
  viability at 100 μM [%]: 37

* * *

protocol description: CellTiter-Glo Luminescent Cell Viability Assay
Format: cell-based, human
recorded conditions: human, CLL cells from a patient, patient P0641, sample 13PB0500; DASA 100 μM; read-out: Viable cells [DASA]

- structure notation: "O=S(=O)(c1ccc2c(c1)OCCO2)N1CCN(S(=O)(=O)c2c(F)cccc2F)CC1"
  viability at 100 μM: "100%"

* * *

protocol description: CellTiter-Glo Luminescent Cell Viability Assay
Type: cell-based, human
recorded conditions: human, CLL cells from a patient, patient P0460, sample 14PB0471; DASA 100 μM; read-out: Viable cells [DASA]

- compound: "O=S(=O)(c1ccc2c(c1)OCCO2)N1CCN(S(=O)(=O)c2c(F)cccc2F)CC1 [DASA]"
  viability at 100 μM, %: 72

* * *

protocol description: CellTiter-Glo Luminescent Cell Viability Assay
Format: cell-based, human
recorded conditions: human, CLL cells from a patient, patient P0641, sample 13PB0649; DASA 100 μM; read-out: Viable cells [DASA]
measurement type: viability at 100 μM (%)

- molecule: "O=S(=O)(c1ccc2c(c1)OCCO2)N1CCN(S(=O)(=O)c2c(F)cccc2F)CC1 [DASA]"
  unit tag: "%"
  val: 88

* * *

protocol description: CellTiter-Glo Luminescent Cell Viability Assay
Type: cell-based, human
recorded conditions: human, CLL cells from a patient, patient P0010, sample 13PB0501; DASA 100 μM; read-out: Viable cells [DASA]
measurement type: viability at 100 μM

- molecule: "O=S(=O)(c1ccc2c(c1)OCCO2)N1CCN(S(=O)(=O)c2c(F)cccc2F)CC1 [DASA]"
  measurement type: "viability at 100 μM"
  val: "100%"

* * *

protocol description: CellTiter-Glo Luminescent Cell Viability Assay
Assay type: cell-based, human
recorded conditions: human, CLL cells from a patient, patient P0010, sample 14PB0132; DASA 100 μM; read-out: Viable cells [DASA]
measurement type: viability at 100 μM

- structure notation: "O=S(=O)(c1ccc2c(c1)OCCO2)N1CCN(S(=O)(=O)c2c(F)cccc2F)CC1"
  measurement type: "viability at 100 μM"
  val: "67%"
